Could you please report measured DC50 for the items listed next?
Biological target: HLA-A*0201 molecule on T2 cells (human (endogenous in T2) | human)
Experiment: flow cytometry on cells; stability assay: T2 cells loaded with peptide (50 μg/ml) and 3 μg/ml β2-M for 18 h at 37°C, brefeldin A (10 μg/ml) 1 h, then 0, 2, 4 and 6 h at 37°C; stained with BB7.2; DC50 = time for the loss of 50% of the HLA-A*0201/peptide complexes stabilized at 0 h
No end group written: not given here.

*Q* Entry ALADKHATL [MTA1 peptide P57] : reported DC50 = ?
*A* > 6 h

*Q* Entry FLSRQLESL [MTA1 peptide P109] : reported DC50 = ?
*A* > 6 h

*Q* Entry TLLNETESL [MTA1 peptide P129] : reported DC50 = ?
*A* > 6 h

*Q* Entry YLIRRIEEL [MTA1 peptide P22] : reported DC50 = ?
*A* > 2 h

*Q* Entry ILIGETIKI (not fully specified) [cyclooxygenase-2 (COX-2) 321-329 peptide] : reported DC50 = ?
*A* > 6 h
